- assayed.system: Amyloid-beta precursor protein (Homo sapiens) (UniProt P05067)
- Sequence (P05067 whole entry): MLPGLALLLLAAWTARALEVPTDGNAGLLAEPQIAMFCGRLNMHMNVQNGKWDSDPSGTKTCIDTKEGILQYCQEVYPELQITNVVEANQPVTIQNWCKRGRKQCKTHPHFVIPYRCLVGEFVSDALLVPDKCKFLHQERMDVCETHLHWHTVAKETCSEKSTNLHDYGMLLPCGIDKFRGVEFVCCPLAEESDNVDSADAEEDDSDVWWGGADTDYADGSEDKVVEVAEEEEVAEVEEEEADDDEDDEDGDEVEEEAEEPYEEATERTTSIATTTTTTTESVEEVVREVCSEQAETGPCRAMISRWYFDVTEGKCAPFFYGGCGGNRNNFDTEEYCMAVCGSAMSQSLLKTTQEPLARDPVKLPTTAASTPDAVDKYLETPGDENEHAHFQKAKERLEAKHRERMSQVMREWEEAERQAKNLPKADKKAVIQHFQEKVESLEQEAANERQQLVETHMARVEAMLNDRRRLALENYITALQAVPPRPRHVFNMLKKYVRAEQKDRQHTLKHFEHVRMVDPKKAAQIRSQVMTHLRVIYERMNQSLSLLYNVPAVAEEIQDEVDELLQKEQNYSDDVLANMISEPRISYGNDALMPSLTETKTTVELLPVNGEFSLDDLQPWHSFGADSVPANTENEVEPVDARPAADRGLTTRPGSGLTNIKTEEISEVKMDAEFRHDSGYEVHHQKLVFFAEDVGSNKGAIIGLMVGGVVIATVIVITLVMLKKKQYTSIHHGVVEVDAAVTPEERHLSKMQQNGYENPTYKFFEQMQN
- method.summary: Inhibition of amyloid beta (1 to 42) (unknown origin) self-aggregation at 20 uM after 46 to 48 hrs by thioflavin T based fluorometric assay
outcome.measure: inhibition (%)

compound	scale.unit	quantitative.readout
CCN(CC)CCCCOc1ccc(CC2NCCc3cc(OC)c(OC)cc32)cc1 (stereo not given)	%	47.3
COc1cc2c(cc1OC)C(Cc1ccc(OCCCCCCN3CCOCC3)cc1)NCC2 (stereo not given)	%	57.4
COc1cc2c(cc1OC)C(Cc1ccc(OCCCCCCN3CCC(O)(Cc4ccccc4)CC3)cc1)NCC2 (stereo not given)	%	62.7
COc1cc2c(cc1OC)C(Cc1ccc(OCCCCCCN3CCCC3C)cc1)NCC2 (stereo not given)	%	72.3
COc1cc2c(cc1OC)C(Cc1ccc(OCCCCCCN3CCCCC3C)cc1)NCC2 (stereo not given)	%	78.4

Source of measurements: ChEMBL document CHEMBL3259766
